# switch fluorescence ratio per entry
# Test system: ATP;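 note: ATP exposure 15 min at 22 °C before imaging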
# method summary: switch fluorescence ratio, 500 uM ATP over buffer (Cy3 cluster intensity, sum of 5 cycles each) (fold (ratio)); higher = stronger signal-on switching upon ATP binding; sequences stand for … in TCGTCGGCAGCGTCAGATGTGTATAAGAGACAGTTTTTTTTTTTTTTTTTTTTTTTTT…TC
# test context: aptamer strand: ATP DNA aptamer (quencher-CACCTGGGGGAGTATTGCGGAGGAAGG + anchor), 100 nM annealed; ATP concentration: 500 uM
outcome measure: switch fluorescence ratio

[[record]]
construct_sequence = "TGGTACAAAA"
outcome_measure = "switch fluorescence ratio"
test_value = 1.04

[[record]]
construct_sequence = "GACATAAAGT"
outcome_measure = "switch fluorescence ratio"
test_value = 0.986

[[record]]
construct_sequence = "TGGTTTAACG"
outcome_measure = "switch fluorescence ratio"
test_value = 0.992

[[record]]
construct_sequence = "TATTCTAGAG"
outcome_measure = "switch fluorescence ratio"
test_value = 0.989

[[record]]
construct_sequence = "TTTTGGGGTT"
outcome_measure = "switch fluorescence ratio"
test_value = 0.997

[[record]]
construct_sequence = "CAAGGGGCAC"
outcome_measure = "switch fluorescence ratio"
test_value = 1.02

[[record]]
construct_sequence = "TTCTGTTGGT"
outcome_measure = "switch fluorescence ratio"
test_value = 1.02

[[record]]
construct_sequence = "GAAGAGGGGT"
outcome_measure = "switch fluorescence ratio"
test_value = 1.01

[[record]]
construct_sequence = "TAGGTTGAAT"
outcome_measure = "switch fluorescence ratio"
test_value = 0.984

[[record]]
construct_sequence = "TGTGGGGCAA"
outcome_measure = "switch fluorescence ratio"
test_value = 1.05

[[record]]
construct_sequence = "ACGGACTGGT"
outcome_measure = "switch fluorescence ratio"
test_value = 1.18

[[record]]
construct_sequence = "CTCGGGGGGA"
outcome_measure = "switch fluorescence ratio"
test_value = 1.01

